Tested on: HL-60(TB) leukemia
PROTOCOL NOTES: NCI-60 one-dose screen, 48 h
COND: 10 µM unless noted
This is part of a sample that, as a whole, favours compounds with a hit. Of some 83,000 tested, about 20% had one in any assay. Calls of active or inactive are those of the source. The calls were made as follows: active = growth percent below 10; inactive = the rest.
Please state which outcome applies, choosing from True = active, False = inactive

COc1ccc2c(c1)c(-c1ccc(-c3cn(C)c4ccc(OC)cc34)[nH]1)cn2C
True
O=C(CN1CCOCC1)Nc1ccc2ncnc(Nc3ccc(Oc4cccc(F)c4)c(Cl)c3)c2c1
False
FC(F)(F)C1=NNC(c2ccc3ccccc3c2)=NN1
False

Per the assay record, what outcome was assigned to Nc1ncnc2c1N=C(c1ccc3c(c1)OCO3)CC(c1cccc(Nc3ccnc4cc(C(F)(F)F)ccc34)c1)N2 (stereo not given) ?
False

What call does the record list for CC1CCN(CCCCCOc2ccc3oc4ccc(Cl)cc4c(=O)c3c2)CC1 ?
False

----------
Test system: HL-60(TB) leukemia
PROTOCOL NOTES: NCI-60 one-dose screen, 48 h
COND: 10 µM unless noted
Compounds without any hit were thinned out: in the full panel of roughly 83,000, 20% have a hit. Calls of active or inactive are those of the source. How the source made its calls: active means growth percent below 10; inactive means the rest.
Entry note: the call must match one of True = active, False = inactive

CCCCn1c(-c2ccc(C(=O)O/N=C(\N)c3ccc4c(c3)OCO4)cc2)nc(-c2ccccc2)c1-c1ccccc1
True
COc1ccc(/C=C(\C#N)c2cc(OC)c3c(c2)OCO3)cc1
True
O=C(Cc1ccc(/C=C/C(=O)c2ncc[nH]2)cc1)Nc1cc(F)c(F)c(F)c1
True

Which outcome did this test record for the compound COc1cc(/C=C\c2cc(OC)c(OC)c(OC)c2)cc(N)c1OC ?
False

# fetch the recorded call for Cc1cc(Nc2nc(N[C@@H](C)c3ncc(F)cn3)ncc2Cl)n[nH]1 here
False

Call for entry CC(=O)NNC(=S)N/C=C/c1c(C)ccc([N+](=O)[O-])c1[N+](=O)[O-] :
False

Status in this test for Cc1nc2cc(-n3c(-c4ccc(F)cc4)nc4ccccc4c3=O)ccc2n1Cc1ccccc1 ?
False

Look up the recorded call for C=CCOc1ccc2c(C)cc(=O)oc2c1 in this test.
False

Assay result, entry CCOC(=O)C1C(=O)C=C(c2cnccn2)CC1c1ccc(OC)c(OC)c1 (stereo not drawn) — outcome?
False

----------
Exercise: state measured growth for each of the compounds provided.
Tested on: NCI/ADR-RES ovarian
PROTOCOL NOTES: NCI-60 one-dose screen, 48 h (100 = growth as untreated, 0 = no growth, -100 = all killed)
COND: 10 µM unless noted
This is part of a sample that, as a whole, favours compounds with a hit. Of some 83,000 tested, about 20% had one in any assay.
One number for each entry, in %.

CO[C@@H]([CH2][Hg][S]C#N)[C@@H]([CH2][Hg][S]C#N)OC
93.7

Could I get growth for every one of these entries?
1. c1ccc(-c2ccc3ccccc3[o+]2)cc1
2. C/C(=N/OC(=O)N(C)C)c1ccc(Cl)cc1Cl

[92.5, 96.7]

Answer for every listed entry: what is its growth? The entries follow.
1. ClCCN(CCCl)c1ccc(/C=C\c2ccnc3ccccc23)cc1
2. CCOCC1(CCc2ccccc2)C(=O)NC(=S)NC1=O
3. CC(C)C1c2ccc(O)cc2Oc2nc(N)c(C#N)c(N)c21 (stereo unspecified)

80.4
105
102

From: PubChem BioAssay (NCI)
